Source of measurements: ChEMBL document CHEMBL1132719

Consider the following compounds and their measured CC50 readings.
- Tested on: CCRF-CEM
- test: Cytotoxic concentration in Wild Type CEM cells
- Assay type: functional
- study-conditions: Homo sapiens
Reply numerically in µM, unit not repeated.

{"compound": "Nc1ncnc2c1ncn2C1OC(COP2(=O)OCc3ccccc3O2)C[C@@H]1F (some centres undefined)", "target-of-assay": "CCRF-CEM", "units-label": "µM", "CC50": 137}
{"compound": "Cc1cccc2c1OP(=O)(OC[C@@H]1C[C@H](F)C(n3cnc4c(N)ncnc43)O1)OC2 (single isomer, unassigned)", "target-of-assay": "CCRF-CEM", "units-label": "µM", "CC50": 146}

For the next question, use this compound.
Form field CC50 for item Cc1cccc2c1OP(=O)(OC[C@@H]1C[C@@H](F)[C@H](n3cnc4c(N)ncnc43)O1)OC2 (some centres undefined) on CCRF-CEM: 118
